target: MKNK2 (human) (UniProt Q9HBH9); assay: radiometric filter-binding kinase assay; settings: compound 0.01 µM
Sequence (Q9HBH9 whole entry, looked up): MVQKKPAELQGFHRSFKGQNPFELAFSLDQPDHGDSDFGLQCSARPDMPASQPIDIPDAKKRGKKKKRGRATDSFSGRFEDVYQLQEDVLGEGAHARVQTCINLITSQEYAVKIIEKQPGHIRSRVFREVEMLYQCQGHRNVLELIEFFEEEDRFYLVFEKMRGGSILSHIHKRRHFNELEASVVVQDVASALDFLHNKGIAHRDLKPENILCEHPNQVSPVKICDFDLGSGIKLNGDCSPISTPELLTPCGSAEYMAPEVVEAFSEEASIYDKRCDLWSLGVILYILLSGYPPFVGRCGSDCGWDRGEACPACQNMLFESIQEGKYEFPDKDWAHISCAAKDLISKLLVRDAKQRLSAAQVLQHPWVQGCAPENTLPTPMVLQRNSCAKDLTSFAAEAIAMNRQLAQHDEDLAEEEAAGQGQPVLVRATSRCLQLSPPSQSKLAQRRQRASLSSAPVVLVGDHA
# note: boundary value 90% maps to NO; residual activity below it maps to YES

{"columns": ["MOLECULE", "CLASS"],
 "data": [
  ["CNC(=O)C1[C@H]2O[C@@](C)([C@@H]1N)n1c3ccccc3c3c4c(c5c6ccccc6n2c5c31)C(=O)NC4 (stereo partly specified)", "NO"],
  ["O=C(Nc1nc2cc(C(F)(F)F)cc(NC3CC3)n2n1)c1cccnc1", "NO"],
  ["COc1ccc(N(C(=O)Nc2c(C)cccc2C)c2cc(Nc3ccc(N4CCN(C)CC4)cc3)ncn2)c(OC)c1", "NO"]
]}

Now for another entry.
Request: Is it true that residual activity reported for C/C(=C1/C(=O)Nc2ccc(NC(N)=O)cc21)c1ccc[nH]1 is less than 90%?
Response: YES
